Recorded measurements of inhibition, one per entry
Target: Dual specificity tyrosine-phosphorylation-regulated kinase 1A (Rattus norvegicus)
Test: rat Dyrk1A kinase inhibitors, primary screen, biochemical, single point, plate reader (AID 504441);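 note: plate controls were vehicle with enzyme for no effect and no enzyme for full effect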
Conditions: ADP-Glo luminescence, NFATc1 peptide, at 12.5 µM, stronger effect = higher value
Screen size: about 310,000 compounds; about 1,300 (0.42%) were called active. This is one part of a sample in which actives are shown more often than they occur.
RECORDED ENDPOINT: inhibition (%)

CCOC(=O)[C@H]1[C@H]2COc3ccc(Br)cc3[C@@H]2N2C(=O)CN(C)C(=O)[C@@]12C | -7.39
CCN1C(=NCCc2cccnc2)N[C@@H](c2ccccc2)C(C(=O)OC)=C1C | 53.7
CC(=O)Nc1cccc(-c2csc(Nc3cccc(C)n3)n2)c1 | 9.85
O=[N+]([O-])c1ccc(NS(=O)(=O)c2ccccc2)c(Cl)c1 | -7.67
CC(=O)Nc1cccc(-c2cnc3ccccc3n2)c1 | 50.4
CC(C)c1ccc(/C=C/C(=O)NNC(=O)c2cccnc2)cc1 | 11.1
O=C(Nc1cccc(-c2nc3ccccc3[nH]2)c1)c1ccc(C(=O)Nc2cccc(-c3nc4ccccc4[nH]3)c2)cc1 | 4.53
CCC1(C)COC(c2ccc(OC)c(OC)c2)OC1 (stereo not given) | 2.1
COC(=O)C1=C(C)N(Cc2ccccc2)C(=NCCCOC(C)C)N[C@H]1c1ccccc1 | -6.8
O=C(Nc1ccccc1)Oc1cccc2cccnc12 | 7.72

----------
Target: Dual specificity tyrosine-phosphorylation-regulated kinase 1A (Rattus norvegicus) (UniProt Q63470)
Assay: rat Dyrk1A kinase inhibitors, primary screen, biochemical, single point, plate reader (AID 504441)
Details: ADP-Glo luminescence, NFATc1 peptide, at 12.5 µM
The campaign covered roughly 310,000 compounds. About 1,300 (0.42%) were called active. No stated cut-off is given here; in the data, active means inhibition above about 50%; inactive means the rest. The list comes from a sample in which actives are over-represented; it also holds close analogues and randomly drawn compounds.
Classes used: t (active), f (inactive)

Cc1noc(NS(=O)(=O)c2ccc(NC(=O)c3oc4ccc(F)cc4c3C)cc2)c1C | t
O=C(NN=CC=Cc1ccccc1)C(O)C(O)C(=O)NN=CC=Cc1ccccc1 (stereo not given) | f
COc1ccccc1C(=O)c1ccccc1C(=O)c1ccccc1 | f
Cc1ccc(/C=C(\C#N)C(=O)Nc2cccc3ncccc23)o1 | t
CCc1ccc(/C=C2\SC(N3CCOCC3)=NC2=O)cc1 | f
COc1ccc(NC(=O)CCN2C(=O)/C(=C/c3ccc4c(c3)OCO4)SC2=S)cc1 | f
CCOC(=O)C1C(c2ccc(O)cc2)NC(=O)NC1(O)C(F)(F)F (stereo not given) | f
CC(=O)Nc1cccc(-c2nc3ccccc3s2)c1C | f
COc1ccc(CCC(=O)Nc2ccc(Cl)c(S(=O)(=O)N3CCOCC3)c2)cc1OC | f
Cc1ccc(S(=O)(=O)n2oc(=O)c(C3CCCCC3)c2N)cc1 | f
Cc1ccccc1Nc1nc(-c2cccnc2)cs1 | f
CC1CCN(C2=NC(=O)/C(=C/c3ccc(O)cc3)S2)CC1 | f
O=C1N=C(N2CCc3ccccc3C2)S/C1=C\c1ccc(O)cc1 | t
O=C(NN=Cc1ccccc1O)NN=Cc1ccccc1O | f
CCOC(=O)C1CCCN(C(=O)C2CCN(S(=O)(=O)c3ccc(Cl)c(C(F)(F)F)c3)CC2)C1 (stereo not given) | f
CCCCN(C(=O)CSCc1ccc(C)cc1)c1c(N)n(Cc2ccccc2)c(=O)[nH]c1=O | f
Cc1ccnc(NS(=O)(=O)c2ccc(NC(=O)c3oc4ccc(F)cc4c3C)cc2)n1 | f
CN(c1ccc(O)cc1)c1nc(-c2cccnc2)cs1 | f
C[C@@H]1O[C@@H](OC[C@H]2O[C@@H](Oc3c(-c4ccc(O)cc4)oc4cc(O)cc(O)c4c3=O)[C@H](O)[C@@H](O)[C@@H]2O)[C@H](O)[C@H](O)[C@H]1O | t
Oc1ccc2nc(Cc3ccccc3)[nH]c2c1 | f
CC(=O)OCC1(O)CC23CCC4c5ccoc5CCC4(C)C2CCC1C3 (stereo not given) | f
Cc1ccnc(NS(=O)(=O)c2ccc(NC(=O)c3oc4ccccc4c3C)cc2)n1 | f
CC(=O)C1C(c2ccc(Cl)cc2)NC(=O)NC1(O)C(F)(F)F (stereo not given) | t
Oc1ccc(-c2[nH]ncc2-c2nc3ccccc3s2)c(O)c1 | t
O=C(O)c1cc(Cl)c(Cl)cc1C(=O)Nc1cccc2ncccc12 | f
O=C(Nc1c(Br)cc2c(c1Br)Cc1cc([N+](=O)[O-])ccc1-2)C(Cl)Cl | f
COc1ccc(-c2cc(=O)c3c(O)cc(O[C@@H]4O[C@H](CO[C@@H]5O[C@@H](C)[C@H](O)[C@@H](O)[C@H]5O)[C@@H](O)[C@H](O)[C@H]4O)cc3o2)cc1O | f
Oc1[nH]c2ccccc2c1N=Nc1c(F)c(F)c(F)c(F)c1F | f
CC(NC(=O)c1ccccc1)C(=O)OCC(=O)Nc1cccc(S(=O)(=O)N2CCCC2)c1 (stereo not given) | f
CCN1CCC(O)(/C=C/c2ccc(C)cc2)C(C(=O)/C=C/c2ccc(C)cc2)C1 (stereo not given) | f
O=C1/C(=C\c2ccc([N+](=O)[O-])cc2)CS(=O)(=O)C/C1=C/c1ccc([N+](=O)[O-])cc1 | f
COC(=O)C(C)Oc1ccc2c(c1)O/C(=C\c1cccc(Br)c1)C2=O (stereo not given) | f
COc1ccc(Oc2cn[nH]c2-c2ccc(OC)cc2O)cc1 | f
COc1ccc(S(=O)(=O)N(C)C[C@@H]2Oc3ccc(NC(=O)Nc4c(C)noc4C)cc3C(=O)N([C@H](C)CO)C[C@@H]2C)cc1 | f
CC1CN(c2nc(Nc3ccccc3)nc(N)c2[N+](=O)[O-])CC(C)O1 (stereo not given) | f
Oc1ccc(-c2csc(Nc3cccnc3)n2)cc1 | t
O=C1/C(=C/c2ccc3c(c2)OCO3)Oc2cc(OCC(=O)N3CC(O)C[C@H]3C(=O)O)ccc21 (stereo not given in full) | t
COc1ccc(-c2nc3cc(C)ccn3c2NC2CCCCC2)cc1SC1CCCCC1 | f
Oc1ccc(-c2nc3ccccc3nc2-c2ccc(O)cc2O)c(O)c1 | t
O=C(OCC1OC(Oc2ccc(O)cc2)C(O)C(O)C1O)c1ccccc1 (stereo not given) | f

----------
Recorded measurements of inhibition, one per entry
Molecular target: Dual specificity tyrosine-phosphorylation-regulated kinase 1A (Rattus norvegicus)
Test: rat Dyrk1A kinase inhibitors, primary screen, biochemical, single point, plate reader (AID 504441);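 note: plate controls were vehicle with enzyme for no effect and no enzyme for full effect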
Conditions: ADP-Glo luminescence, NFATc1 peptide, at 12.5 µM, stronger effect = higher value
Hit rate of the full screen: of about 310,000 compounds, about 1,300 (0.42%) were called active. Shown is part of a subset that was picked to be rich in actives.
RECORDED ENDPOINT: inhibition (%)

O=C(NNC(=O)c1ccccc1O)c1ccccc1O | -1.63
O=S1(=O)CSCS(=O)(=O)C1 | -4.37
c1ccc(C(=NNc2nc3ccccc3s2)c2ccccn2)cc1 | 12.7

----------
Recorded measurements of inhibition, one per entry
Target: Dual specificity tyrosine-phosphorylation-regulated kinase 1A (Rattus norvegicus) (UniProt Q63470)
Assay: rat Dyrk1A kinase inhibitors, primary screen, biochemical, single point, plate reader (AID 504441);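 note: plate controls were vehicle with enzyme for no effect and no enzyme for full effect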
Details: ADP-Glo luminescence, NFATc1 peptide, at 12.5 µM, stronger effect = higher value
About 1,300 (0.42%) of roughly 310,000 compounds were called active. The sample as a whole holds a higher share of actives than the screen did.
RECORDED ENDPOINT: inhibition (%)

COc1cc(C2c3cc4c(cc3C(O)C3COC(=O)C23)OCO4)cc(OC)c1OC (stereo not given) | 0.167
CCOC(=O)Cn1c(=O)n(Cc2ccc(OC)cc2)c(=O)c2cccnc21 | 2.78
COc1ccccc1N(CC(=O)Nc1c(C)n(C)n(-c2ccccc2)c1=O)S(=O)(=O)c1ccccc1 | 8.43
CCCCNC(=O)C(C)N(CCN(C)C)C(=O)CCCN1C(=O)NC(c2ccc(Cl)cc2)C(C(=O)OCc2ccccc2)=C1C (stereo not given) | 5.26
O=C1N=C(N2CCCC2)S/C1=C\c1cccc(Br)c1 | -2.99
CCOC(=O)Cn1c(-c2cccnc2Cl)nc2ccccc21 | 80.1
CCOc1cc(/C=C2\SC(N3CCCCC3)=NC2=O)ccc1O | 62.2
COc1ccc2oc(C(=O)NCc3ccco3)c(C)c2c1 | 19.2
CCc1nnc(NC(=O)c2cc(S(=O)(=O)N3CCN(CC)CC3)ccc2Cl)s1 | 7.13
COc1ccc(S(=O)(=O)N2CCc3ccccc32)cc1C(=O)Nc1cc(S(C)(=O)=O)ccc1Cl | -1.51

----------
Recorded measurements of inhibition, one per entry
Target: Dual specificity tyrosine-phosphorylation-regulated kinase 1A (Rattus norvegicus)
Test: rat Dyrk1A kinase inhibitors, primary screen, biochemical, single point, plate reader (AID 504441);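 note: plate controls were vehicle with enzyme for no effect and no enzyme for full effect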
Details: ADP-Glo luminescence, NFATc1 peptide, at 12.5 µM, stronger effect = higher value
Out of some 310,000 compounds screened, about 1,300 (0.42%) were called active. The sample holds actives, similar compounds and a random draw of the others, so the mix is not that of the screen.
RECORDED ENDPOINT: inhibition (%)

O=C1CSC(=S)N1/N=C/c1ccc(O)c([N+](=O)[O-])c1 | 90.8
CCc1cc2c(N3CCN(c4nnc(CC)s4)CC3)ncnc2s1 | 25.4
O=C(CC(O)(C(F)(F)F)C(F)(F)F)Nc1ccc(Cl)c(Cl)c1 | 53.9
O=C(O)c1ccc(NN=CC2=C(N3CCOCC3)/C(=C/c3ccccc3)CC2)cc1 | 17.6
COc1cc(O)c2c(=O)c3c(O)c(O)ccc3oc2c1OC | 50.1
Cc1cccc(NC(=S)N2CCC(C(=O)c3ccc(F)cc3)CC2)c1 | 10.4
COc1c(O)cc2oc(-c3ccc(O)c(O)c3)cc(=O)c2c1O | 50.5
COc1ccc2nc(N3C(=O)C(O)=C(C(=O)c4ccco4)C3c3ccco3)sc2c1 (stereo not given) | 7.88
COc1ccc(S(=O)(=O)N(C)C[C@@H]2Oc3ccc(NS(=O)(=O)c4cn(C)cn4)cc3C(=O)N([C@@H](C)CO)C[C@@H]2C)cc1 | 0.973
CCc1cc2c(NC(Cc3ccccc3)C(=O)O)ncnc2s1 (stereo not given) | 2.6
C[C@H]1CN([C@@H](C)CO)C(=O)Cc2cc(NC(=O)Cc3ccccc3)ccc2O[C@H]1CN(C)S(=O)(=O)c1cccs1 | -0.989
COc1cccc2cc(-c3cc(=O)oc4cc(C)c(O)cc34)oc12 | -4.38
CN(C(=O)c1cccc(NC(=O)Cc2ccc(NC(=O)C3CCCN(C(=O)C4CCCC4)C3)cc2)c1)C1CCC1 (stereo not given) | 2.93
COc1ccc(/C=C2/CCCc3ccccc3C2=O)cc1 | 11.6
CCCN(C(=O)COC(=O)CNS(=O)(=O)c1ccc(NC(C)=O)cc1)C1CCS(=O)(=O)C1 (stereo not given) | 7.58
O=C(c1cccc(S(=O)(=O)N2CCCCCC2)c1)N1CCN(Cc2ccccc2)CC1 | -0.662
O=c1nc(NO)ccn1C1CCCO1 (stereo not given) | -3
COc1ccc(S(=O)(=O)N(C)C[C@H]2Oc3ccc(NS(=O)(=O)c4cccs4)cc3CC(=O)N([C@H](C)CO)C[C@H]2C)cc1 | 55.4
O=C(Cc1ccc(Cl)c(Cl)c1)Nc1ccc(SC(F)F)cc1 | -0.116
COc1ccc(CNCCCn2cnc3c(OCc4ccccc4)ncnc32)cc1 | 6.66

This collection of values is drawn from PubChem BioAssay AID504441.
